Target or system: Probable G-protein coupled receptor 142 (Mus musculus)
Sequence (Q7TQN9 whole entry): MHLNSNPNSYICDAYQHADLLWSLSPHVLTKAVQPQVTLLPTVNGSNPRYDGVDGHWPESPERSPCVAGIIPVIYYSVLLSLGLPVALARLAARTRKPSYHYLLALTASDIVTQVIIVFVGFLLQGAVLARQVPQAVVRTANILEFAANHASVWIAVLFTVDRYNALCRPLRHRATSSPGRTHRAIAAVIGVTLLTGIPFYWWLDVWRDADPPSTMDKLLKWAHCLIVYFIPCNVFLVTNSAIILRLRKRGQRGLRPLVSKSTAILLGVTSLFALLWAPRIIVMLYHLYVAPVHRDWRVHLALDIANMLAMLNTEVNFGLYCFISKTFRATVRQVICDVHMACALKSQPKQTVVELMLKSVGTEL
Test protocol: Agonist activity at mouse GPR142 expressed in CHO cells measured for 3 mins by Fluo-4M dye based FLIPR assay
Condition label: read-out: IC50 (the source's name)
pEC50: −log10 of the molar value.
Measurement name: pEC50

a: COc1cccc(NC(=O)N2CCOc3ccc(-c4ccnc(OC)c4)cc3C2)c1
b: O=C(Nc1cccc(F)c1)N1CCOc2ccc(-c3ccncc3)cc2C1
c: O=C(Nc1cccc(C(F)(F)F)c1)N1CCOc2ccc(-c3ccncc3)cc2C1
d: O=C(Nc1cccc(-c2ccccc2)c1)N1CCOc2ccc(-c3ccncc3)cc2C1
Returns the items ordered by pEC50, from maximum to minimum. Order the labels as requested and give them as your answer. d, c, b, a
(d: 7.21, c: 6.96, b: 6.38, a: 5.59)

* * *

Target or system: Probable G-protein coupled receptor 142 (Mus musculus, UniProt Q7TQN9)
Test protocol: Agonist activity at mouse GPR142 expressed in CHO cells measured for 3 mins by Fluo-4M dye based FLIPR assay
Condition label: read-out: IC50 (the source's name)
pEC50: −log10 of the molar value.
Measurement name: pEC50

{"Smiles input": "O=C(Nc1ccc(Cl)c(Cl)c1)N1CCc2ccc(-c3ccncc3)cc21", "pEC50": 5.53}
{"Smiles input": "O=C(Nc1cccc(Oc2ccccc2)c1)N1CCOc2ccc(-c3ccncc3)cc2C1", "pEC50": 6.84}
{"Smiles input": "O=C(Nc1ccc(F)c(Cl)c1)N1CCOc2ccc(-c3ccncc3)cc2C1", "pEC50": 6.21}

P: O=C(Nc1cccc(Cl)c1Cl)N1CCOc2ccc(-c3ccncc3)cc2C1
Q: O=C(Nc1ccc(Cl)c(Cl)c1)N1CCc2ccc(-c3ccncc3)cc2C1
Between the entries labelled P and Q , which has a larger pEC50 value on record? Bench note: the answer is the label of the chosen record. P

a: O=S(=O)(Cc1cccc(C(F)(F)F)c1)N1CCOc2ccc(-c3ccncc3)cc2C1
b: COc1cccc(NC(=O)N2CCOc3ccc(-c4ccncc4OC)cc3C2)c1
c: COc1cccc(NC(=O)N2CCOc3ccc(-c4ccncc4C)cc3C2)c1
d: O=C(Nc1ccc(F)cc1)N1CCOc2ccc(-c3ccncc3)cc2C1
# desc sort on pEC50 across 4 molecules Order the labels as requested and give them as your answer. a, b, c, d
(a: 6.80, b: 6.31, c: 5.93, d: 5.58)

P: O=C(Nc1ccc(Cl)c(Cl)c1)N1CCNc2ccc(-c3ccncc3)cc2C1
Q: N#Cc1cccc(NC(=O)N2CCOc3ccc(-c4ccncc4)cc3C2)c1
R: N#Cc1cccc(NC(=O)N2CCOc3ccc(-c4ccnc(N)c4)cc3C2)c1
S: CCCCN1CCN(C(=O)Nc2ccc(Cl)c(Cl)c2)Cc2cc(-c3ccncc3)ccc21
Rank ascending by pEC50. Order the labels as requested and give them as your answer. S, R, P, Q

* * *

Test protocol: Clearance in rat at 2 mg/kg, po or 1 mg/kg, iv
Assay type: ADME, organism-based
Condition label: in vivo
Measurement name: clearance (mL/min/kg)

{"Smiles input": "FC(F)(F)Oc1cccc(Nc2nnc3n2CCOc2ccc(-c4ccncc4)cc2-3)c1", "Unit label": "mL/min/kg", "clearance": 23.9}
{"Smiles input": "Cc1cc(-c2ccc3c(c2)-c2nnc(Oc4cccc(Cl)c4F)n2CCO3)ccn1", "Unit label": "mL/min/kg", "clearance": 8.9}
{"Smiles input": "Cc1cc(-c2ccc3c(c2)-c2nnc(Nc4cccc(OC(F)(F)F)c4)n2CCO3)ccn1", "Unit label": "mL/min/kg", "clearance": 11}

1: O=C(Nc1cccc(Cl)c1)N1CCOc2ccc(-c3ccncc3)cc2C1
2: O=C(Nc1ccc(Cl)c(Cl)c1)N1CCOc2ccc(-c3ccncc3)cc2C1
3: Cc1cc(-c2ccc3c(c2)-c2nnc(Nc4cccc(Cl)c4)n2CCO3)ccn1
4: CCc1cc(-c2ccc3c(c2)-c2nnc(Nc4cccc(C(F)(F)F)c4)n2CCO3)ccn1
# desc sort on clearance across 4 compounds Order the labels as requested and give them as your answer. 2, 1, 4, 3
(2: 88.6 mL/min/kg, 1: 56.1 mL/min/kg, 4: 14 mL/min/kg, 3: 7.8 mL/min/kg)

* * *

Test protocol: Volume of distribution at steady state in rat at 2 mg/kg, po or 1 mg/kg, iv
Assay type: ADME, organism-based
Condition label: in vivo, read-out: Vdss
Measurement name: Vd (L/kg)

a: O=C(Nc1ccc(Cl)c(Cl)c1)N1CCOc2ccc(-c3ccncc3)cc2C1
b: O=C(Nc1cccc(Cl)c1)N1CCOc2ccc(-c3ccncc3)cc2C1
Between the entries labelled a and b , which has a larger Vd value on record? Bench note: the answer is the label of the chosen record. a
(a: 3.4 L/kg, b: 2 L/kg)

1: CCc1cc(-c2ccc3c(c2)-c2nnc(Nc4cccc(C(F)(F)F)c4)n2CCO3)ccn1
2: Cc1cc(-c2ccc3c(c2)-c2nnc(Oc4cccc(Cl)c4F)n2CCO3)ccn1
Hey, which is lower on measured Vd, 1 or 2 ? Bench note: the answer is the label of the chosen record. 2

* * *

Test protocol: Half life in rat at 2 mg/kg, po or 1 mg/kg, iv
Type: ADME, organism-based
Condition label: in vivo
Measurement name: half-life (h)

1: CCc1cc(-c2ccc3c(c2)-c2nnc(Nc4cccc(C(F)(F)F)c4)n2CCO3)ccn1
2: Cc1cc(-c2ccc3c(c2)-c2nnc(Oc4cccc(Cl)c4F)n2CCO3)ccn1
3: O=C(Nc1ccc(Cl)c(Cl)c1)N1CCOc2ccc(-c3ccncc3)cc2C1
Returns the items ordered by half-life, from maximum to minimum. Order the labels as requested and give them as your answer. 2, 1, 3
(2: 2 h, 1: 1.4 h, 3: 0.71 h)

P: Cc1cc(-c2ccc3c(c2)-c2nnc(Nc4cccc(OC(F)(F)F)c4)n2CCO3)ccn1
Q: O=C(Nc1cccc(Cl)c1)N1CCOc2ccc(-c3ccncc3)cc2C1
R: FC(F)(F)Oc1cccc(Nc2nnc3n2CCOc2ccc(-c4ccncc4)cc2-3)c1
# desc sort on half-life across 3 compounds Order the labels as requested and give them as your answer. P, R, Q
(P: 2 h, R: 1 h, Q: 0.66 h)

* * *

pIC50: −log10 of the molar value.
Hi! I'm sharing some pIC50 results obtained with Cytochrome P450 3A4 (Homo sapiens).
Sequence (P08684 whole entry): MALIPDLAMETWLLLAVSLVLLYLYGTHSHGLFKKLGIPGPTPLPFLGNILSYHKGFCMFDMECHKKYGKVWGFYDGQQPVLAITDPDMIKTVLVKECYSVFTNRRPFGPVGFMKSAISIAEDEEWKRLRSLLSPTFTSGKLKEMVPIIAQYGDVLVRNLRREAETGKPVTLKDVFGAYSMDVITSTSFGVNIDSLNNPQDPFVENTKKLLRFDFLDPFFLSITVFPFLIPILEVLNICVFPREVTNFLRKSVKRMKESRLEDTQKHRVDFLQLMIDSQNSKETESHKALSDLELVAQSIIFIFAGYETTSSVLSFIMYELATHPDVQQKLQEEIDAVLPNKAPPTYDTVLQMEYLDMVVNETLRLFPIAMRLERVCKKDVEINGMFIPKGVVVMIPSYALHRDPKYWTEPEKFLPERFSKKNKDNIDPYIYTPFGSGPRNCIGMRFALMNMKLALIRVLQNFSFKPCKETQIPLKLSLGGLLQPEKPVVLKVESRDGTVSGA
Measurement name: pIC50

{"Smiles input": "Cc1cc(-c2ccc3c(c2)-c2nnc(Nc4cccc(Cl)c4)n2CCO3)ccn1", "Measurement name": "pIC50", "Number": 4.93}

1: FC(F)(F)Oc1cccc(Nc2nnc3n2CCOc2ccc(-c4ccncc4)cc2-3)c1
2: Cc1cc(-c2ccc3c(c2)-c2nnc(Nc4cccc(C(F)(F)F)c4)n2CCO3)ccn1
Between the entries labelled 1 and 2 , which has a larger pIC50 value on record? Bench note: the answer is the label of the chosen record. 1
(1: 5.79, 2: 4.32)

* * *

Target or system: Probable G-protein coupled receptor 142 (Homo sapiens, UniProt Q7Z601)
Sequence (Q7Z601 whole entry): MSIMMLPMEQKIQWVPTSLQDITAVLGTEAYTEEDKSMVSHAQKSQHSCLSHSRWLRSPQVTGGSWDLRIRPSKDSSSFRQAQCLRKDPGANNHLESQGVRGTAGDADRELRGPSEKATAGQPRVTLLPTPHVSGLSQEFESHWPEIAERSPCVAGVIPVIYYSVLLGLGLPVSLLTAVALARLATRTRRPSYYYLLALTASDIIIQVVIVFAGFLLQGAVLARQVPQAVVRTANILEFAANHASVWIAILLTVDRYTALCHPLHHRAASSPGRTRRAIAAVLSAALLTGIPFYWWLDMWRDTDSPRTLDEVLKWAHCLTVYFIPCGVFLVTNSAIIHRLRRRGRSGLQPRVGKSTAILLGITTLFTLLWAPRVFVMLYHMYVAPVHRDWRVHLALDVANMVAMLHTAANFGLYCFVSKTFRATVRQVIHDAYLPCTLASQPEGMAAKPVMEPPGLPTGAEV
Test protocol: Agonist activity at human GPR142 expressed in CHO cells measured for 3 mins by Fluo-4M dye based FLIPR assay
Condition label: read-out: IC50 (the source's name)
Measurement name: EC50 (µM)

{"Smiles input": "COc1cccc(NC(=O)N2CCOc3ccc(-c4ccncc4C)cc3C2)c1", "Unit label": "µM", "EC50": 0.394}

A: O=S(=O)(Cc1cccc(C(F)(F)F)c1)N1CCOc2ccc(-c3ccncc3)cc2C1
B: Cc1cc(-c2ccc3c(c2)-c2nnc(Nc4cccc(OC(F)(F)F)c4)n2CCO3)ccn1
C: Cc1cc(-c2ccc3c(c2)-c2nnc(Oc4cccc(OC(F)(F)F)c4)n2CCO3)ccn1
# desc sort on EC50 across 3 molecules Order the labels as requested and give them as your answer. A, C, B
(A: 2.29 µM, C: 0.078 µM, B: 0.045 µM)

a: Cc1cc(-c2ccc3c(c2)-c2nnc(Cc4cccc(Cl)c4)n2CCO3)ccn1
b: COc1cccc(NC(=O)N2CCOc3ccc(-c4ccnc(C)c4)cc3C2)c1
Between the entries labelled a and b , which has a larger EC50 value on record? Bench note: the answer is the label of the chosen record. a
(a: 0.593 µM, b: 0.374 µM)
